Assignment: determine reported IC50 for the given compounds.
- Subject Of Test: ErbB2 (Homo sapiens, UniProt P04626)
- Sequence (P04626 676-1255 limits assumed): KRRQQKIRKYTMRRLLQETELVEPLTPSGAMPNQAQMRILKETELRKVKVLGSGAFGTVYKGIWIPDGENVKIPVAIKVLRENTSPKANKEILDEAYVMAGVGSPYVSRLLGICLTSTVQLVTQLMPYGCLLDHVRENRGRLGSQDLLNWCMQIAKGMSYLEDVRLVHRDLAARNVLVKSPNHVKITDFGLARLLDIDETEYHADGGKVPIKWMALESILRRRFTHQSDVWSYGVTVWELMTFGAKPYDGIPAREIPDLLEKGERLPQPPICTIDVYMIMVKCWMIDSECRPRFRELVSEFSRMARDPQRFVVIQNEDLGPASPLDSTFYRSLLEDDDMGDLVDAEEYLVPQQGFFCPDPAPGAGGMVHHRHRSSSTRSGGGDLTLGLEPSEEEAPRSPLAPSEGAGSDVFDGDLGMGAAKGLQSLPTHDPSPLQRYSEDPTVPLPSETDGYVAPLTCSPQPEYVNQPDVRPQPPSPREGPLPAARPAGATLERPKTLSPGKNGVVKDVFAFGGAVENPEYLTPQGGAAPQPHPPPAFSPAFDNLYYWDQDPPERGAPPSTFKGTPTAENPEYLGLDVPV
- Test Description: ErbB2 substrate phosphorylation enzyme assay (HTRF)
- Test Parameters: isolated enzyme, 20 μM ATP

Which IC50 value is on record for O=C(Nc1cccc(C#Cc2cncnc2Nc2ccc(OCc3cccc(F)c3)c(Cl)c2)n1)C(F)(F)F ?
< 100 nM

Which IC50 value is on record for CN(C)CCCC(=O)Nc1cccc(C#Cc2cncnc2Nc2ccc(OCc3cccc(F)c3)c(Cl)c2)n1 ?
< 100 nM

Which IC50 value is on record for Fc1cccc(COc2ccc(Nc3ncncc3C#Cc3cccc(CN4CCCCC4)n3)cc2Cl)c1 ?
< 100 nM

Which IC50 value is on record for Fc1cccc(COc2ccc(Nc3ncncc3C#Cc3cccc(CNCCN4CCOCC4)n3)cc2Cl)c1 ?
100 to 1000 nM

Which IC50 value is on record for Nc1nccc(C#Cc2cncnc2Nc2ccc(OCc3cccc(F)c3)c(Cl)c2)n1 ?
< 100 nM

Which IC50 value is on record for CC(=O)Nc1cccc(/C=C/c2cncnc2Nc2ccc(OCc3cccc(F)c3)c(Cl)c2)c1 ?
< 100 nM

Which IC50 value is on record for C(=C\c1cncnc1Nc1ccc2sc(Cc3ccccc3)nc2c1)/c1ccsc1 ?
> 1000 nM

Which IC50 value is on record for N=C(N)Nc1cccc(C#Cc2cncnc2Nc2ccc(OCc3cccc(F)c3)c(Cl)c2)c1 ?
< 100 nM

Which IC50 value is on record for Fc1cccc(COc2ccc(Nc3ncncc3/C=C/c3ccsc3)cc2Cl)c1 ?
< 100 nM

Which IC50 value is on record for CS(=O)(=O)CCNc1cccc(C#Cc2cncnc2Nc2ccc(OCc3cccc(F)c3)c(Cl)c2)n1 ?
> 1000 nM

Which IC50 value is on record for COC(=O)CCC(=O)Nc1cccc(C#Cc2cncnc2Nc2ccc(OCc3cccc(F)c3)c(Cl)c2)n1 ?
100 to 1000 nM

Which IC50 value is on record for O=C(NCCN1CCOCC1)NCc1cccc(C#Cc2cncnc2Nc2ccc(OCc3cccc(F)c3)c(Cl)c2)n1 ?
< 100 nM

Which IC50 value is on record for Fc1cccc(COc2ccc(Nc3ncncc3/C=C/c3ccccc3)cc2Cl)c1 ?
< 100 nM

Which IC50 value is on record for C(=C\c1cncnc1Nc1ccc2c(cnn2Cc2ccccc2)c1)/c1cn[nH]c1 ?
100 to 1000 nM

Which IC50 value is on record for Nc1cccc(C#Cc2cncnc2Nc2ccc(OCc3cccc(F)c3)c(Cl)c2)n1 ?
< 100 nM

Which IC50 value is on record for COc1ccc(/C=C/c2cncnc2Nc2ccc(OCc3cccc(F)c3)c(Cl)c2)cc1OC ?
< 100 nM

Which IC50 value is on record for COCc1cccc(C#Cc2cncnc2Nc2ccc(OCc3cccc(F)c3)c(Cl)c2)n1 ?
> 1000 nM

Which IC50 value is on record for Fc1cccc(COc2ccc(Nc3ncncc3C#Cc3cccc(CNCCCn4ccnc4)n3)cc2Cl)c1 ?
< 100 nM

Which IC50 value is on record for Fc1cccc(COc2ccc(Nc3ncncc3/C=C/c3ccncc3)cc2Cl)c1 ?
< 100 nM

Which IC50 value is on record for CS(=O)(=O)CCNC(=O)NCc1cccc(C#Cc2cncnc2Nc2ccc(OCc3cccc(F)c3)c(Cl)c2)n1 ?
< 100 nM

====

- Subject Of Test: EGFR (Homo sapiens)
- Construct: made in house; host or cells: baculovirus expression system
- Test Description: EGFR substrate phosphorylation enzyme assay (HTRF)
- Type: biochemical
- Test Parameters: isolated enzyme, 20 μM ATP
pIC50: −log10 of the molar value.
Value Type: pIC50

Which pIC50 value is on record for O=C(NCCN1CCOCC1)NCc1cccc(C#Cc2cncnc2Nc2ccc(OCc3cccc(F)c3)c(Cl)c2)n1 ?
> 7.00

Which pIC50 value is on record for Fc1cccc(COc2ccc(Nc3ncncc3C#Cc3cccc(CN4CCCCC4)n3)cc2Cl)c1 ?
> 7.00

Which pIC50 value is on record for Fc1cccc(COc2ccc(Nc3ncncc3/C=C/c3ccccc3)cc2Cl)c1 ?
> 7.00

====

Assignment: determine reported IC50 for the given molecules.
- Subject Of Test: EGFR (Homo sapiens, UniProt P00533)
- Sequence (P00533 669-1210 limits assumed): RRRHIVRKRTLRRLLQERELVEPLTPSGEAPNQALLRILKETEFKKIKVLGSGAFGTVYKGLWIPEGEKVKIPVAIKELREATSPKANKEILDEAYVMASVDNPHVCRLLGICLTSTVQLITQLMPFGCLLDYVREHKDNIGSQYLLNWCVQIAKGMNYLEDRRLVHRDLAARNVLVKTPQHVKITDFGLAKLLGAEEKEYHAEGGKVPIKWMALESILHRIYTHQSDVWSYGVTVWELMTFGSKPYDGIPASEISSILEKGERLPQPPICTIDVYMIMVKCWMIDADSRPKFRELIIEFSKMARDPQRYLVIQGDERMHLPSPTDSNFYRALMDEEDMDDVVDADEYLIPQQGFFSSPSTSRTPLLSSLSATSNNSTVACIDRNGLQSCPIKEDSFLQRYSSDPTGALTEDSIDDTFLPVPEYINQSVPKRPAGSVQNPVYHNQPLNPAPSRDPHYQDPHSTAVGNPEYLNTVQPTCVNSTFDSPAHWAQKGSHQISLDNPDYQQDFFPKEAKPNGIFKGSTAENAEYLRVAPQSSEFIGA
- Test Description: EGFR substrate phosphorylation enzyme assay (HTRF)
- Test Parameters: isolated enzyme, 20 μM ATP

Which IC50 value is on record for COCc1cccc(C#Cc2cncnc2Nc2ccc(OCc3cccc(F)c3)c(Cl)c2)n1 [Example 80] ?
> 1000 nM

Which IC50 value is on record for Nc1cccc(C#Cc2cncnc2Nc2ccc(OCc3cccc(F)c3)c(Cl)c2)n1 [Example 67] ?
< 100 nM

Which IC50 value is on record for Fc1cccc(COc2ccc(Nc3ncncc3/C=C/c3ccncc3)cc2Cl)c1 [Example 14] ?
< 100 nM

Which IC50 value is on record for N=C(N)Nc1cccc(C#Cc2cncnc2Nc2ccc(OCc3cccc(F)c3)c(Cl)c2)c1 [Example 49] ?
100 to 1000 nM

Which IC50 value is on record for CS(=O)(=O)CCNC(=O)NCc1cccc(C#Cc2cncnc2Nc2ccc(OCc3cccc(F)c3)c(Cl)c2)n1 [Example 88] ?
< 100 nM

Which IC50 value is on record for COc1ccc(/C=C/c2cncnc2Nc2ccc(OCc3cccc(F)c3)c(Cl)c2)cc1OC [Example 21] ?
< 100 nM

Which IC50 value is on record for C(=C\c1cncnc1Nc1ccc2sc(Cc3ccccc3)nc2c1)/c1ccsc1 [Example 5] ?
> 1000 nM

Which IC50 value is on record for C(=C\c1cncnc1Nc1ccc2c(cnn2Cc2ccccc2)c1)/c1cn[nH]c1 [Example 9] ?
100 to 1000 nM

Which IC50 value is on record for Fc1cccc(COc2ccc(Nc3ncncc3C#Cc3cccc(CNCCN4CCOCC4)n3)cc2Cl)c1 [Example 76] ?
100 to 1000 nM

Which IC50 value is on record for Fc1cccc(COc2ccc(Nc3ncncc3/C=C/c3ccsc3)cc2Cl)c1 [Example 17] ?
< 100 nM

Which IC50 value is on record for CN(C)CCCC(=O)Nc1cccc(C#Cc2cncnc2Nc2ccc(OCc3cccc(F)c3)c(Cl)c2)n1 [Example 70] ?
< 100 nM

Which IC50 value is on record for O=C(Nc1cccc(C#Cc2cncnc2Nc2ccc(OCc3cccc(F)c3)c(Cl)c2)n1)C(F)(F)F [Example 100] ?
< 100 nM

Which IC50 value is on record for CS(=O)(=O)CCNc1cccc(C#Cc2cncnc2Nc2ccc(OCc3cccc(F)c3)c(Cl)c2)n1 [Example 72] ?
> 1000 nM

Which IC50 value is on record for CC(=O)Nc1cccc(/C=C/c2cncnc2Nc2ccc(OCc3cccc(F)c3)c(Cl)c2)c1 [Example 20] ?
< 100 nM

Which IC50 value is on record for Fc1cccc(COc2ccc(Nc3ncncc3C#Cc3cccc(CNCCCn4ccnc4)n3)cc2Cl)c1 [Example 78] ?
< 100 nM

Which IC50 value is on record for COC(=O)CCC(=O)Nc1cccc(C#Cc2cncnc2Nc2ccc(OCc3cccc(F)c3)c(Cl)c2)n1 [Example 71] ?
100 to 1000 nM
